All values here come from BindingDB's records for doi:10.1021/jm300579z.

- target_desc: Pituitary adenylate cyclase-activating polypeptide type I receptor (Homo sapiens) (UniProt P41586)
- Sequence (P41586 whole entry, looked up): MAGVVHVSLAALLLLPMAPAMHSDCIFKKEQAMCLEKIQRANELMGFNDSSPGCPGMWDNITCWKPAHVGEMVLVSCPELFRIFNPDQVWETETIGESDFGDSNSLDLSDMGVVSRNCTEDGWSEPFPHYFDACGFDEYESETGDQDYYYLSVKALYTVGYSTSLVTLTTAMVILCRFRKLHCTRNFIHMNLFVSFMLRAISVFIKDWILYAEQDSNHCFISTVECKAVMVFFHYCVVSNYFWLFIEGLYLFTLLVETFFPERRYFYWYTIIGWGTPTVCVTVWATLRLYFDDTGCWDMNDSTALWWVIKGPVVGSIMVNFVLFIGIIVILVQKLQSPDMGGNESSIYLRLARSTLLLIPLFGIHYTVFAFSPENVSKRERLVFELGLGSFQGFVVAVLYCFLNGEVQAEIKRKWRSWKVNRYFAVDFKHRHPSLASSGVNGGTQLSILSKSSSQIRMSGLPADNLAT
- method_summary: Antagonist activity at human PAC1 expressed in mouse […] 3T3 cells assessed as inhibition of glucagon-induced cAMP accumulation preincubated for 30 mins prior to glucagon challenge measured after 30 mins post glucagon challenge by liquid scintillation counter
recorded_metric: IC50 (µM)
// return numeric value only (unit: µM, not printed)

Retrieve IC50 measured for COc1ccc2cc(-c3cc(-c4cc(Cl)cc(Cl)c4)nn3[C@@H](C)c3ccc(C(=O)NCCC(=O)O)cc3)ccc2c1 and print it.
9.2
